- TEST SYSTEM: T1, recombinant RSV-F protein (RSV A2 strain fusion (F) protein with added His tag) (human respiratory syncytial virus, A2 …, UniProt P03420 26-524)
- T1 construct: also called RSV-F recombinant protein
- T1 sequence (P03420 26-109, chain 1 of 2): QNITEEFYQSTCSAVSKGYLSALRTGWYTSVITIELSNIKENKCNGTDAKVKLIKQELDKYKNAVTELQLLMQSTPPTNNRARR
- T1 sequence (P03420 137-524, chain 2 of 2): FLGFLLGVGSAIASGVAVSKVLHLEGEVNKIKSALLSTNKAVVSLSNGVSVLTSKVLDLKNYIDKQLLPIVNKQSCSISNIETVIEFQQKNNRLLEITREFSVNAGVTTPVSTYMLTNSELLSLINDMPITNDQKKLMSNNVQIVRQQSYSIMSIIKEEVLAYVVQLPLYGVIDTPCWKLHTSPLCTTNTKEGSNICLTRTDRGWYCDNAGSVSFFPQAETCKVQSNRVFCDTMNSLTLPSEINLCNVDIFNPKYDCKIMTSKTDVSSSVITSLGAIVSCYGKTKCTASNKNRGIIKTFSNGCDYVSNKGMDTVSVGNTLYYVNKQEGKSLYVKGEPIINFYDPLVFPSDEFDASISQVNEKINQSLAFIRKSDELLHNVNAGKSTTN
- ASSAY OVERVIEW: SPR (Biacore), antibody captured, RSV-F as analyte
Each entry below carries its recorded koff.
Reply numerically in s⁻¹, unit not repeated.

>>> measurement("A2-P (antibody, V domains shown, also called humanized mutant antibody A2-P) VH: QVTLKESGPALVKPTQTLTLTCTFSGFSLSTSGMGVSWIRQPPGKALEWLAHIYWDDDKNFNPSLRSRLTITKDPSKNQVVLTMTNMDPVDTATYFCARKLYNDYDYILDYWGQGTTVTVSS VL: DIVMTQSPLSLPVTPGEPASISCRSSKSLLHSNGITYLPWFLQKPGQSPQLLIYQMSNLASGVPDRFSGSGSGTDFTLKISRVEAEDVGVYYCAQNLELWTFGQGTRLEIK")
0.000156

In: Given the binder A2-Q (antibody, V domains shown, also called humanized mutant antibody A2-Q) VH: QVTLKESGPALVKPTQTLTLTCTFSGFSLSTSGMGVSWIRQPPGKALEWLAHIYWDDDKNFNPSLRSRLTITKDPSKNQVVLTMTNMDPVDTATYFCARKLYNDYDYILDYWGQGTTVTVSS VL: DIVMTQSPLSLPVTPGEPASISCRSSKSLLHSNGITYLQWFLQKPGQSPQLLIYQMSNLASGVPDRFSGSGSGTDFTLKISRVEAEDVGVYYCAQNLELWTFGQGTRLEIK , what is its reported koff?
Out: 0.000166

Attribution: patent US20250026815A1
